Consider the following compounds; for each one, report its luciferase reporter transactivation.
- Test system: PPARgamma LBD (GAL4 fusion)
- method: luciferase reporter transactivation, fold of solvent control; higher = stronger receptor activation
- applied conditions: concentration: 10 µM; HEK293T; exposure time: 24 h
Respond using a number only.

# get_value(readout= luciferase reporter transactivation, system= PPARgamma LBD (GAL4 fusion)) for O=C(O)C(F)(F)C(F)(F)C(F)(F)C(F)(F)F [perfluoropentanoic acid]
0.918

# get_value(readout= luciferase reporter transactivation, system= PPARgamma LBD (GAL4 fusion)) for OCCC(F)(F)C(F)(F)C(F)(F)C(F)(F)C(F)(F)C(F)(F)F [6:2 fluorotelomer alcohol]
0.973

# get_value(readout= luciferase reporter transactivation, system= PPARgamma LBD (GAL4 fusion)) for Cc1c(C)c2c(c(C)c1O)CCC(C)(COc1ccc(CC3SC(=O)NC3=O)cc1)O2 (centres undefined) [troglitazone]
27.7

# get_value(readout= luciferase reporter transactivation, system= PPARgamma LBD (GAL4 fusion)) for O=S(=O)(O)CCC(F)(F)C(F)(F)C(F)(F)C(F)(F)C(F)(F)C(F)(F)C(F)(F)C(F)(F)F [8:2 fluorotelomer sulfonic acid]
0.922

====

- Tested on: RARalpha (GAL4 fusion)
- method: luciferase reporter transactivation, fold of solvent control; higher = stronger receptor activation
- applied conditions: concentration: 50 µM; HEK293T; exposure time: 24 h
readout: luciferase reporter transactivation
Respond using a number only.

# get_value(readout= luciferase reporter transactivation, system= RARalpha (GAL4 fusion)) for O=S(=O)(O)CCC(F)(F)C(F)(F)C(F)(F)C(F)(F)C(F)(F)C(F)(F)C(F)(F)C(F)(F)F
1.55

# get_value(readout= luciferase reporter transactivation, system= RARalpha (GAL4 fusion)) for OCCC(F)(F)C(F)(F)C(F)(F)C(F)(F)C(F)(F)C(F)(F)F
0.872

# get_value(readout= luciferase reporter transactivation, system= RARalpha (GAL4 fusion)) for O=S(=O)(O)CCC(F)(F)C(F)(F)C(F)(F)C(F)(F)C(F)(F)C(F)(F)F
1.72

# get_value(readout= luciferase reporter transactivation, system= RARalpha (GAL4 fusion)) for O=C(O)C(F)(F)C(F)(F)C(F)(F)C(F)(F)F
1.37
